Cited source for all entries: paper PMC4566129

Biological target: ABCB1 (Homo sapiens, UniProt P08183)
Sequence (P08183 whole entry): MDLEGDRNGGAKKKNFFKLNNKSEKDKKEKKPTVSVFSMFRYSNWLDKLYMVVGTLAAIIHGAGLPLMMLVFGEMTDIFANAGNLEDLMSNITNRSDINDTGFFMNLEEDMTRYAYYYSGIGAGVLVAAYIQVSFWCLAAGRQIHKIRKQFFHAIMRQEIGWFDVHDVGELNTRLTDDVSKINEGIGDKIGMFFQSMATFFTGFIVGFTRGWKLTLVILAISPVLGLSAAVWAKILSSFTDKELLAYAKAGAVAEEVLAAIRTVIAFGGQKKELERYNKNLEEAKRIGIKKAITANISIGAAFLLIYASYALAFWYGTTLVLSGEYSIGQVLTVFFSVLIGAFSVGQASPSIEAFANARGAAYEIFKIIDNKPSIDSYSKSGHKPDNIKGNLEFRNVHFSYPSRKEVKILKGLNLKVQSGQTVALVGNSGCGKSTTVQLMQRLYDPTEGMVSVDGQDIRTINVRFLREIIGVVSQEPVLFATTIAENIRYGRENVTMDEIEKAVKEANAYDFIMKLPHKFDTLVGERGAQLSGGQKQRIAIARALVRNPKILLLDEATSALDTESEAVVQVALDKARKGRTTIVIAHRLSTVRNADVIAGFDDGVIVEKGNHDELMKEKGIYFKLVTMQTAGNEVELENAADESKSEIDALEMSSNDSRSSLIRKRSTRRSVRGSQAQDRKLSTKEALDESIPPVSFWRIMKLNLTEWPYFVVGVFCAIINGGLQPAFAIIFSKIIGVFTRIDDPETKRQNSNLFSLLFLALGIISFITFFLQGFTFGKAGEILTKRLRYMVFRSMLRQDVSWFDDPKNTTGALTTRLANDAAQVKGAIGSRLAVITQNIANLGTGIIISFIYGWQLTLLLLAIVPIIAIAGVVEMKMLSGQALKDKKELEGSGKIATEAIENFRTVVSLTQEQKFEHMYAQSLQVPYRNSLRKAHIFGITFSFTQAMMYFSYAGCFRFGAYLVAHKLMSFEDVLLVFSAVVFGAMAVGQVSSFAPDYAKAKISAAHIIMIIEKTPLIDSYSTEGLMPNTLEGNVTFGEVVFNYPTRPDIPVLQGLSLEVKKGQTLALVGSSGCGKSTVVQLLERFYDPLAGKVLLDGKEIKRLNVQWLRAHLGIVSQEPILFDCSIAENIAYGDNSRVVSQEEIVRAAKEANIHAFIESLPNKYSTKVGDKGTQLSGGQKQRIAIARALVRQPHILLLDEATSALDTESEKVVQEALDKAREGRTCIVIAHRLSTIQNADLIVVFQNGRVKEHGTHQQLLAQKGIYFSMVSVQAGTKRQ
Experiment: cell-based
Conditions: IC50 of tariquidar for inhibition of [3H]-N-desmethyl-loperamide transport, ABCB1-transfected LLC cells, normalized TR over 6 h, estimated by sigmoidal fit

- compound string: "COc1cc2c(cc1OC)CN(CCc1ccc(NC(=O)c3cc(OC)c(OC)cc3NC(=O)c3cnc4ccccc4c3)cc1)CC2"
  study system: "ABCB1 (Homo sapiens, UniProt P08183)"
  value unit: "nM"
  IC50: 9

###

Molecular target: UniProt:P21447
Experiment: PET imaging of radiotracer brain distribution (Kb,brain) in C57BL/6N wild-type, Abcb1a/1b(−/−) and Abcb1a/1b(+/−) mice and tariquidar concentration–response
pIC50: −log10 of the molar value.

- compound string: "COc1cc2c(cc1OC)CN(CCc1ccc(NC(=O)c3cc(OC)c(OC)cc3NC(=O)c3cnc4ccccc4c3)cc1)CC2"
  pIC50: 5.88

###

Target: Abcb1a (Mus musculus, UniProt P21447)
Sequence (P21447 whole entry): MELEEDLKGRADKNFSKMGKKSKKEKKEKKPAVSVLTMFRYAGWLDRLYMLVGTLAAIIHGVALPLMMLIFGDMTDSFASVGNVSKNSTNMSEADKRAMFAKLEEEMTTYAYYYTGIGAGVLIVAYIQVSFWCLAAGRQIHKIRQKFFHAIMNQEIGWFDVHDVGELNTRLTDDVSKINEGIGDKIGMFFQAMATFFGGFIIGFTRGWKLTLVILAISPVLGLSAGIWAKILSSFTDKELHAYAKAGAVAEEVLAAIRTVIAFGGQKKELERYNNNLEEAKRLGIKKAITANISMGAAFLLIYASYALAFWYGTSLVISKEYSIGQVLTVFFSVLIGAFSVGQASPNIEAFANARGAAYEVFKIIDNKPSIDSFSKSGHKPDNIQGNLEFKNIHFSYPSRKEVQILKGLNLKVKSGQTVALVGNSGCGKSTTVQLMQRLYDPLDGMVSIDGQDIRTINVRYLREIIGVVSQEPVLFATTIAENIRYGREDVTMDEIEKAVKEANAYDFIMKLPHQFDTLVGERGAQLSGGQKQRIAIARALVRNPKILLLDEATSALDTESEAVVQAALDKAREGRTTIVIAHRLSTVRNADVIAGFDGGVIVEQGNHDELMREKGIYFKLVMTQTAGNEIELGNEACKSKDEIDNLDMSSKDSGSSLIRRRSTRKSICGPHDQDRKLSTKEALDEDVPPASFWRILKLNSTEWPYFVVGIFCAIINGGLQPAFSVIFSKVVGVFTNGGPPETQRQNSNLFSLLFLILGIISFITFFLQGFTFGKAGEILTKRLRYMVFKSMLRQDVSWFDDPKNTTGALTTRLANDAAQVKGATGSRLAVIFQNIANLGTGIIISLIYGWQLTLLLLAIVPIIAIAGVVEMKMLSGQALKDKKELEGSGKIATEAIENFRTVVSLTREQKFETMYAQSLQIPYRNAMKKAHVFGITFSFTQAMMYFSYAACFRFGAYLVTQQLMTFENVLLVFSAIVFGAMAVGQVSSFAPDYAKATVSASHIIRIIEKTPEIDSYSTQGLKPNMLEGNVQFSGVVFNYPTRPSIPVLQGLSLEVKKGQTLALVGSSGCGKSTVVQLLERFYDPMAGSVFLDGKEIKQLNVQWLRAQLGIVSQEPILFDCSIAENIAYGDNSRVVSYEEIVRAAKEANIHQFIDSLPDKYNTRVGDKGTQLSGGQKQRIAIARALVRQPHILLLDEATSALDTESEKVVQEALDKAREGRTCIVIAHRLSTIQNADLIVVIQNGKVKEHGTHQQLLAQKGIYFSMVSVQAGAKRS
Assay: Bidirectional transport assay in Abcb1a-transfected LLC cells (LLC-Abcb1a) without/with tariquidar
Conditions: IC50 of tariquidar for inhibition of [3H]verapamil transport, Abcb1a-transfected LLC cells, normalized TR over 6 h, estimated by sigmoidal fit

- compound: "COc1cc2c(cc1OC)CN(CCc1ccc(NC(=O)c3cc(OC)c(OC)cc3NC(=O)c3cnc4ccccc4c3)cc1)CC2 [tariquidar]"
  study system: "Abcb1a (Mus musculus, UniProt P21447)"
  value unit: "nM"
  IC50: 17.9
